Data provenance: PubChem BioAssay

- SUBJECT OF TEST: Homeobox protein Hox-A13 (Mus musculus) (UniProt Q62424)
- Sequence (Q62424 whole entry, looked up): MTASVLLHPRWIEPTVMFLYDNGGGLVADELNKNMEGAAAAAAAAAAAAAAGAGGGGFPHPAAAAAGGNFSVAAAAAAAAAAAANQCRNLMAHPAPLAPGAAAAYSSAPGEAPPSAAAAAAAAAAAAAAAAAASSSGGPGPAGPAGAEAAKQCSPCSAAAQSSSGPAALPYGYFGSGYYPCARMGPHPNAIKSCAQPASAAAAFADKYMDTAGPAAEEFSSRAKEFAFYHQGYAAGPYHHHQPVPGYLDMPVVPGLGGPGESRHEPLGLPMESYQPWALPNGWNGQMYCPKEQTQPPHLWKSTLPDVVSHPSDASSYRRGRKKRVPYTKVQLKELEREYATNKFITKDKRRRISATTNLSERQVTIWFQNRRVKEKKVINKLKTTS
- TEST PROTOCOL: disruptors of Hoxa13 oligonucleotide interaction – biochemical, fluorescence polarization, labeled oligonucleotide, primary screen (AID 1185)
- EXPERIMENTAL CONTEXT: Hoxa13:DNA binding, 15 min, higher = more signal, called active from +8 up or from −8 down

COMPOUND	z-score
COCCOC(=O)N1C(=O)[C@@]2(c3cc(C#CC4(O)CCCCCC4)ccc31)[C@H](C(=O)N1CCc3cc(OC)c(OC)cc3C1)[C@H]1C(=O)O[C@H](c3ccccc3)[C@H](c3ccccc3)N1[C@@H]2c1ccc(OCCO)cc1	2.15
O=C(NCCN1CCOCC1)[C@@H]1c2ccccc2C(=O)N(Cc2ccccc2Cl)[C@H]1c1ccc(CO)cc1	-4.26
C=CCOC(=O)[C@@]1(Cc2ccccc2)C[C@H]2CO[C@H](c3ccc(OC)cc3)N2C1=O	-3.45
O=c1cccc(-c2ccc([N+](=O)[O-])cc2)o1	-0.755
C=CCC(OC(C)=O)[C@@H]1[C@@H](N(Cc2ccc(-c3ccccc3)cc2)C(=O)c2ccc(-c3ccccc3)cc2)c2cc(OCCCO)ccc2N1C(=O)c1ccc2ccccc2c1 (some centres not stated)	-0.68
OCCCC1=CC(c2ccc(CN3CCCC3)cc2)N(Cc2cc3c(cc2Br)OCO3)CC1 (configuration not stated)	-2.68
COC(=O)[C@@H]1N=C(c2ccc(OCCCO)cc2)O[C@@H]1C	-2.44
[N-]=[N+]=NCc1ccccc1[C@H]1OC(c2ccc(OCCCO)cc2)=N[C@@]1(Cc1ccccc1N=[N+]=[N-])C(=O)NCC(O)CO (some centres not stated)	-4.17
CC(C)C(O)C1C=CC2C(=O)N(c3ccccc3)C(=O)C2N1Nc1ccccc1 (configuration not stated)	-4.18
CCOC(=O)C1=C[C@@H](C(C)C)N(S(=O)(=O)c2ccc(C)cc2)[C@H]1c1ccc(C(F)(F)F)cc1	-0.498
CCOC(=O)[C@@H]1CCCCN1C(=O)C(=O)OC	0.731
COc1cc(OC)c(C(O)C2C=CC3C(=O)N(Cc4ccccc4)C(=O)C3N2n2cnnc2)cc1Br (configuration not stated)	0.767
C=CC[C@@H](OC(=O)Nc1ccc(OC)cc1)c1ccc(O)c(F)c1	-3.65
CC(C)C[C@@H]1NC(=O)[C@@H]2C[C@H](C(=O)NCCCCCCN)[C@H](c3cccc(OCCO)c3)N2C1=O	-3.79
Cc1ccc(S[C@]2(C(=O)NCC(F)(F)F)CC(=O)N(Cc3cc(C(F)(F)F)cc(C(F)(F)F)c3)[C@@H]2c2ccc(CO)cc2)cc1	-1.71
CC(=O)N1CC2(CC2)CC1c1ccccc1 (configuration not stated)	-1.06
COC(=O)[C@@]1(Cc2ccc(F)cc2)[C@H]2c3cc(C(=O)N4CCCC4)n(CCc4c[nH]c5ccccc45)c3C[C@H]2CN1C(=O)c1ccccc1	-3.15

----------
- System: Human papillomavirus type 1a protein E7 (residues 44-93)
- TEST PROTOCOL: small molecules binding HPV E7 44-93 – biochemical, small-molecule microarray, residues 44-93, 635 nm fluorescence, primary screen (AID 1108);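 further: E7 fragment applied at 1 µg/mL in TBST for 1 h at 4 C; score combines spot fluorescence with its signal to noise ratio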
- EXPERIMENTAL CONTEXT: fluorescence 635 nm, higher = more signal
Label Condition met when composite z-score >= 1; otherwise Condition not met.

SMILES ENTRY	LABEL CLASS
Cc1ccc(F)cc1S(=O)(=O)N[C@@H]1CCN(Cc2ccc(Br)cc2)C1	Condition not met
Cc1ccc(S[C@]2(C(=O)NCC(F)(F)F)CC(=O)N(Cc3cc(C(F)(F)F)cc(C(F)(F)F)c3)[C@@H]2c2ccc(CO)cc2I)cc1	Condition not met
COCCCNC(=O)[C@@]1(CCC(=O)OC(C)(C)C)N=C(c2ccc(OCCCO)cc2)O[C@H]1c1ccccc1N=[N+]=[N-]	Condition not met
CC(C)N1C(=O)C[C@@](C(=O)O)(c2ccc([N+](=O)[O-])cc2)[C@H]1c1ccc(CO)cc1	Condition not met
COCCOC(=O)N1C(=O)[C@@]2(c3cc(C#CCC(C(=O)OC)C(=O)OC)ccc31)[C@H](c1ccc(OCCO)cc1)N1[C@H](c3ccccc3)[C@H](c3ccccc3)OC(=O)[C@H]1[C@@H]2C(=O)N1CCc2cc(OC)c(OC)cc2C1	Condition met
C=CC[C@]1(C(=O)N2CCOCC2)COC(c2ccc(OCCCO)cc2)=N1	Condition met
Cc1ccc(N2C(=O)c3ccccc3[C@@H](C(=O)NCCCN(C)C)[C@@H]2c2ccc(CO)cc2)nc1	Condition not met
CN(C)C(=O)[C@@]1(Cc2ccccc2)N=C(c2ccc(OCCCO)cc2)O[C@H]1c1ccccc1	Condition not met
CC(C)C[C@@H]1NC(=O)[C@@H]2C[C@H](C(=O)NCCCCCCN)[C@H](c3cccc(OCCO)c3)N2C1=O	Condition met
NC(=O)NCC#Cc1ccc2c(c1)[C@]1(C(=O)N2)[C@H](c2ccccc2OCCO)N2[C@H](c3ccccc3)[C@H](c3ccccc3)OC(=O)[C@H]2[C@@H]1C(=O)O	Condition met
CC#CCO[Si](C#Cc1ccccc1)(C(C)C)C(C)C	Condition not met
COC(=O)C/C=C/C[C@]1(O)C(=O)N(C)c2ccccc21	Condition not met
NC(=O)[C@@]1(Cc2ccccc2)COC(c2ccc(OCCCO)cc2)=N1	Condition not met
